assay: hepatic microsome stability, mouse; type: in vitro ADME; conditions: liver microsomes, hepatic microsome stability (% remaining after 1 h), -NADPH
property_measured: remaining at 1 h (%)
// note: answer is a bare numeric in %

Input line: Would you mind telling me what remaining at 1 h value was observed for `O=C(Nc1ccc(CN2CCCCC2)cc1)c1cc(Cl)cc(OCc2ccccc2)c1` ?
Output line: 74

###

experiment: PAMPA permeability; type: in vitro ADME; conditions: Pe, Donor pH 6.2, Acceptor pH 7.4
property_measured: Papp (×10⁻⁶ cm/s)
// note: answer is a bare numeric in ×10⁻⁶ cm/s

Input line: Would you mind telling me what Papp value was observed for O=C(Nc1ccc(CN2CCCCC2)cc1)c1cc(Cl)cc(OCc2ccccc2)c1 [Compound 4] ?
Output line: 1340

###

experiment: plasma protein binding, human; format: in vitro ADME
property_measured: fraction unbound at 10 μM
A bare number is all that is needed in reply.

Input line: Would you mind telling me what fraction unbound at 10 μM value was observed for `O=C(Nc1ccc(CN2CCCCC2)cc1)c1cc(Cl)cc(OCc2ccccc2)c1` ?
Output line: 0.008

###

assay: hepatic microsome stability, mouse; format: in vitro ADME; details: liver microsomes, hepatic microsome stability (% remaining after 1 h), +NADPH
property_measured: remaining at 1 h (%)
// note: answer is a bare numeric in %

Input line: Would you mind telling me what remaining at 1 h value was observed for O=C(Nc1ccc(CN2CCCCC2)cc1)c1cc(Cl)cc(OCc2ccccc2)c1 [Compound 4] ?
Output line: 30

###

test: plasma stability, human; format: in vitro ADME
property_measured: remaining at 3 h (%)
// note: answer is a bare numeric in %

Input line: Would you mind telling me what remaining at 3 h value was observed for `O=C(Nc1ccc(CN2CCCCC2)cc1)c1cc(Cl)cc(OCc2ccccc2)c1` ?
Output line: 39

###

tested on: mitochondrial permeability transition pore (PTP); assay: Ca2+-induced mitochondrial swelling assay; format: biochemical; settings: read-out: mitochondrial swelling EC50; isolated mouse liver mitochondria; 50 μM Ca2+
property_measured: pEC50
Lab note: report pEC50 as minus log10 of the concentration in molar units, number only.

Input line: Would you mind telling me what pEC50 value was observed for `O=C(Nc1ccc(CN2CCCCC2)cc1)c1cc(Cl)cc(OCc2ccccc2)c1` ?
Output line: 6.55

###

assay: plasma stability, mouse; assay type: in vitro ADME
property_measured: remaining at 3 h (%)
// note: answer is a bare numeric in %

Input line: Would you mind telling me what remaining at 3 h value was observed for `O=C(Nc1ccc(CN2CCCCC2)cc1)c1cc(Cl)cc(OCc2ccccc2)c1` ?
Output line: 35

###

assay: hepatic microsome stability, human; format: in vitro ADME; conditions: liver microsomes, hepatic microsome stability (% remaining after 1 h), -NADPH
property_measured: remaining at 1 h (%)
// note: answer is a bare numeric in %

Input line: Would you mind telling me what remaining at 1 h value was observed for `O=C(Nc1ccc(CN2CCCCC2)cc1)c1cc(Cl)cc(OCc2ccccc2)c1` ?
Output line: 67

###

experiment: plasma protein binding, mouse; assay type: in vitro ADME
property_measured: fraction unbound at 10 μM
A bare number is all that is needed in reply.

Input line: Would you mind telling me what fraction unbound at 10 μM value was observed for `O=C(Nc1ccc(CN2CCCCC2)cc1)c1cc(Cl)cc(OCc2ccccc2)c1` ?
Output line: 0.017

###

assay: BBB PAMPA permeability; type: in vitro ADME; details: pH 7.4
property_measured: Papp (×10⁻⁶ cm/s)
// note: answer is a bare numeric in ×10⁻⁶ cm/s

Input line: Would you mind telling me what Papp value was observed for `O=C(Nc1ccc(CN2CCCCC2)cc1)c1cc(Cl)cc(OCc2ccccc2)c1` ?
Output line: 113

###

experiment: hepatic microsome stability, human; type: in vitro ADME; details: liver microsomes, hepatic microsome stability (% remaining after 1 h), +NADPH
property_measured: remaining at 1 h

Input line: Would you mind telling me what remaining at 1 h value was observed for O=C(Nc1ccc(CN2CCCCC2)cc1)c1cc(Cl)cc(OCc2ccccc2)c1 [Compound 4] ?
Output line: 61%

###

test: PAMPA permeability; assay type: in vitro ADME; conditions: Pe, Donor pH 5.0, Acceptor pH 7.4
property_measured: Papp (×10⁻⁶ cm/s)
// note: answer is a bare numeric in ×10⁻⁶ cm/s

Input line: Would you mind telling me what Papp value was observed for `O=C(Nc1ccc(CN2CCCCC2)cc1)c1cc(Cl)cc(OCc2ccccc2)c1` ?
Output line: 1300

###

assay: plasma protein binding, human; assay type: in vitro ADME
property_measured: fraction unbound at 1 μM
A bare number is all that is needed in reply.

Input line: Would you mind telling me what fraction unbound at 1 μM value was observed for `O=C(Nc1ccc(CN2CCCCC2)cc1)c1cc(Cl)cc(OCc2ccccc2)c1` ?
Output line: 0.008
